Origin of measurements: paper PMC11696576

Target: secreted GV sPLA2 (Homo sapiens)
Sequence (P39877 21-138): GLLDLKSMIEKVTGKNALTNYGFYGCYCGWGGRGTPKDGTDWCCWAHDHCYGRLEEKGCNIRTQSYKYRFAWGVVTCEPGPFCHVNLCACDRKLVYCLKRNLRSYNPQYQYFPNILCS
Assay: radioactivity-based mixed micelle assay, GV sPLA2
Type: biochemical
Settings: individual technical replicate; read-out: sPLA2 % inhibition at 0.091 mole fraction
label 1 means recorded inhibition at 0.091 mole fraction is 40% or above; label 0 means it is below 40%.

Does inhibition at 0.091 mole fraction meet or surpass 40% for COC(=O)c1csc(C(=O)C(C)Oc2ccc(Oc3ccccc3)cc2)n1 (stereo not shown) [GK428] ?
label 0

Identify whether the reported inhibition at 0.091 mole fraction of the following molecule is 40% or greater: COC(=O)c1csc(C(=O)COc2ccc(Oc3ccccc3)cc2)n1 [GK403]
label 0

Is it the case that COC(=O)c1csc(C(=O)COc2ccc(Oc3ccc(F)cc3)cc2)n1 [GK440] has inhibition at 0.091 mole fraction reaching or exceeding 40%?
label 0

Entry CCCCCCCCc1ccc(OCC(=O)c2nc(C(=O)OCC)cs2)cc1 [GK401] : is its inhibition at 0.091 mole fraction no less than 40%?
label 1

In plain terms: is recorded inhibition at 0.091 mole fraction at least 40% for CCCCCCOc1ccc(SCC(=O)c2nc(C(=O)OC)cs2)cc1 [GK419] ?
label 0

Does the molecule CCCCCCSc1ccc(OC(C)C(=O)c2nc(C(=O)OC)cs2)cc1 (stereo not shown) [GK449] have recorded inhibition at 0.091 mole fraction that is 40% or more?
label 1

For this molecule, is measured inhibition at 0.091 mole fraction 40% or higher? CCCCCCCCc1ccc(OC(C)C(=O)c2nc(C(=O)OC)cs2)cc1 (stereo not shown) [GK402]
label 1

Identify whether the reported inhibition at 0.091 mole fraction of the following molecule is 40% or greater: CCCCCCCOc1ccc(OCC(=O)c2nc(C(=O)OC)cs2)cc1 [GK420]
label 1

Does the reported inhibition at 0.091 mole fraction for CCCCCCCOc1ccc(OC(C)C(=O)c2nc(C(=O)OC)cs2)cc1 (stereo not shown) [GK439] fall at or above the 40% mark?
label 1

* * *

Would you kindly list pIC50 for each of these compounds?
Tested on: panel of 66 cancer cell lines
Assay: cancer cell line screen, proliferation assay (ATPlite, 72 h)
Assay type: cell-based, human
Settings: Homo sapiens, LoVo; read-out: IC50
Note: pIC50 values are expressed as the negative base-10 logarithm of concentration in M.

Dear colleague, please send me the reported pIC50 for CCCCCCCCc1ccc(OCC(=O)c2nc(C(=O)OC)cs2)cc1 [GK470] when you can.
4.71

Determine its reported pIC50: CCCCCCCOc1ccc(OCC(=O)c2nc(C(=O)OC)cs2)cc1 [GK420]
4.78

* * *

Please go through the items and note down their inhibition at 0.091 mole fraction.
Target: recombinant human cPLA2α (Homo sapiens, UniProt P47712)
Sequence (P47712 1-749): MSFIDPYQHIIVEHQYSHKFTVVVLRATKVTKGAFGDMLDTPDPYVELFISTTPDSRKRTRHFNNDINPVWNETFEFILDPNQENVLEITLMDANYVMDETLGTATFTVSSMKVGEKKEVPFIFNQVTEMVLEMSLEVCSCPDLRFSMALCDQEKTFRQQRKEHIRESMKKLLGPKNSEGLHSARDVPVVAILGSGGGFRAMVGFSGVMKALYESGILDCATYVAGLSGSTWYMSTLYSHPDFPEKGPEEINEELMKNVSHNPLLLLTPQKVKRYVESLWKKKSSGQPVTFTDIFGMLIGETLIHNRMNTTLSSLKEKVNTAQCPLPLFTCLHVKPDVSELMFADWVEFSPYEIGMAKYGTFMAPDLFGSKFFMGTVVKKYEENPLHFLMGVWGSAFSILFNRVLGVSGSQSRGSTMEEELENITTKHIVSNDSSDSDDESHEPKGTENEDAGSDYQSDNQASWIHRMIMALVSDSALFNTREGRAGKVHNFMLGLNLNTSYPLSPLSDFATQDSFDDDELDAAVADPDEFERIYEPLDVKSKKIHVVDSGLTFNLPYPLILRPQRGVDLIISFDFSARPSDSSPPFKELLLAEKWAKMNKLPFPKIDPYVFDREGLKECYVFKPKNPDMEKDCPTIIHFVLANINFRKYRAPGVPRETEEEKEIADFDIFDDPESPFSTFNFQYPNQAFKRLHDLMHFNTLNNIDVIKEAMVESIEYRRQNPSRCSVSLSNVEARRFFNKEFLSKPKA
Assay: radioactivity-based mixed micelle assay, cPLA2α
Assay type: biochemical
Conditions: 0.091 mole fraction; read-out: cPLA2α % Inhib
Please reply with the bare figure in % and do not write the unit itself.

Report measured inhibition at 0.091 mole fraction; entry is CCCCCCSc1ccc(OCC(=O)c2nc(C(=O)OC)cs2)cc1
98

Tell us which inhibition at 0.091 mole fraction value is on record for CCCCCCCCc1ccc(OC(C)C(=O)c2nc(C(=O)OC)cs2)cc1 (centres unmarked)
79

Give a short answer stating reported inhibition at 0.091 mole fraction for COC(=O)c1csc(C(=O)COc2ccc(Oc3ccc(F)cc3)cc2)n1 .
100

Output measured inhibition at 0.091 mole fraction for this item: CCCCCCSc1ccc(OC(C)C(=O)c2nc(C(=O)OC)cs2)cc1 (centres unmarked)
98

Give the reported inhibition at 0.091 mole fraction for this molecule. COC(=O)c1csc(C(=O)C(C)Oc2ccc(Oc3ccccc3)cc2)n1 (centres unmarked)
94

* * *

Experiment: viability of PBMCs (CTG and propidium iodide exclusion)
Format: cell-based, human
Conditions: human, PBMC 72H; 1 µM; rep1-5; read-out: PBMC viability relative to 0 µM = 100 (Figure S8a)
measurementName: viability at 72 h, 1 µM (%)
Quick note: give the figure in %, leave out the unit.

Query viability at 72 h, 1 µM for CCCCCCCOc1ccc(OCC(=O)c2nc(C(=O)OC)cs2)cc1
103

* * *

Test system: panel of 66 cancer cell lines
Assay: cancer cell line screen, proliferation assay (ATPlite, 72 h)
Assay type: cell-based, human
Conditions: Homo sapiens, K562, K-562; read-out: IC50
measurementName: pIC50
Quick note: pIC50 values are minus log10 of concentrations in mol/L.

State pIC50 (panel of 66 cancer cell lines) of CCCCCCCCc1ccc(OCC(=O)c2nc(C(=O)OC)cs2)cc1 [GK470] .
4.96

Please report pIC50 with panel of 66 cancer cell lines for item CCCCCCCOc1ccc(OCC(=O)c2nc(C(=O)OC)cs2)cc1 [GK420] .
4.81

* * *

Biological target: human calcium-independent GVIA iPLA2 (Homo sapiens, UniProt O60733)
Sequence (O60733 whole entry): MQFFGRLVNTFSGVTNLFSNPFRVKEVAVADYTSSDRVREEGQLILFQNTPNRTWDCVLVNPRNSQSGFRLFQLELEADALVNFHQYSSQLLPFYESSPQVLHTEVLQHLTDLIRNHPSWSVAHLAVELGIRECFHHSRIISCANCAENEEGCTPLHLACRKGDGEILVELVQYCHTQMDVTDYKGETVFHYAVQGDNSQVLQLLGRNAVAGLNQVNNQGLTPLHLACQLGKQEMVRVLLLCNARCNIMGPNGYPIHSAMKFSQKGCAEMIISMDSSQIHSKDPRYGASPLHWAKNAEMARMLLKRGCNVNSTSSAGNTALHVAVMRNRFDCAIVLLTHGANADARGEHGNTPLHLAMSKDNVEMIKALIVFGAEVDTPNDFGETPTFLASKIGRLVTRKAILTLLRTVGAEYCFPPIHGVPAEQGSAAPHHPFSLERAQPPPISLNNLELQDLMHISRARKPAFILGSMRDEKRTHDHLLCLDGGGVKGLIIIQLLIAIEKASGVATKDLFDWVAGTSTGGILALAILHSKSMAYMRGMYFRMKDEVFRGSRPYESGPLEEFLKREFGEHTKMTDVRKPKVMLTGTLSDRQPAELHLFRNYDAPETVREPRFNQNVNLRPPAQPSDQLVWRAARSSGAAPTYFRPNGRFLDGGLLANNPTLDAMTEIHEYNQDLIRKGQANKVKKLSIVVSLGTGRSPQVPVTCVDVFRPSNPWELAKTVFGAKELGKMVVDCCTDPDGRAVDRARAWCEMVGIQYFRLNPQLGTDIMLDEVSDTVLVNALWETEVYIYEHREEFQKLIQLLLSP
Assay: radioactivity-based mixed micelle assay, GVIA iPLA2
Type: biochemical
Conditions: average of triplicates; read-out: iPLA2 % inhibition at 0.091 mole fraction, average
measurementName: inhibition at 0.091 mole fraction (%)
Your answer should be a plain number; it is taken to be in %.

Look up and report measured inhibition at 0.091 mole fraction for this entry: CCCCCCSc1ccc(OC(C)C(=O)c2nc(C(=O)OC)cs2)cc1 (stereo not shown)
67.1

Identify the reported inhibition at 0.091 mole fraction for the following entry. CCCCCCCOc1ccc(OCC(=O)c2nc(C(=O)OC)cs2)cc1
0

Annotate the molecule COC(=O)c1csc(C(=O)COc2ccc(Oc3ccccc3)cc2)n1 with its measured inhibition at 0.091 mole fraction.
34.3

Supply inhibition at 0.091 mole fraction value. Item: CCCCCCCCc1ccc(OC(C)C(=O)c2nc(C(=O)OC)cs2)cc1 (stereo not shown)
60.8

Give a short answer stating reported inhibition at 0.091 mole fraction for CCCCCCCCc1ccc(OCC(=O)c2nc(C(=O)OCC)cs2)cc1 .
39.8

Retrieve inhibition at 0.091 mole fraction measured for CCCCCCSc1ccc(OCC(=O)c2nc(C(=O)OC)cs2)cc1 and print it.
7.5

Please supply the value of reported inhibition at 0.091 mole fraction for the item COC(=O)c1csc(C(=O)COc2ccc(Oc3ccc(F)cc3)cc2)n1
0

Give the reported value of inhibition at 0.091 mole fraction for this record: CCCCCCOc1ccc(SCC(=O)c2nc(C(=O)OC)cs2)cc1
0

Identify measured inhibition at 0.091 mole fraction associated with CCCCCCCOc1ccc(OC(C)C(=O)c2nc(C(=O)OC)cs2)cc1 (stereo not shown)
66.9

Specify reported inhibition at 0.091 mole fraction for the molecule shown: COC(=O)c1csc(C(=O)C(C)Oc2ccc(Oc3ccccc3)cc2)n1 (stereo not shown)
53.6

* * *

Biological target: human calcium-independent GVIA iPLA2 (Homo sapiens)
Assay: radioactivity-based mixed micelle assay, GVIA iPLA2
Format: biochemical
Settings: 0.091 mole fraction; read-out: GVIA iPLA2 % Inhib
Provide the reported inhibition at 0.091 mole fraction of each item.
The answer is to be given in %; state only the numeric part.

Indicate its recorded inhibition at 0.091 mole fraction; the molecule in question is CCCCCCCCc1ccc(OC(C)C(=O)c2nc(C(=O)OC)cs2)cc1 (stereo not shown)
61

Answer with reported inhibition at 0.091 mole fraction of CCCCCCCCc1ccc(OCC(=O)c2nc(C(=O)OCC)cs2)cc1
40

Output inhibition at 0.091 mole fraction of CCCCCCSc1ccc(OCC(=O)c2nc(C(=O)OC)cs2)cc1
7.5

Answer with the recorded inhibition at 0.091 mole fraction for the molecule listed here: COC(=O)c1csc(C(=O)COc2ccc(Oc3ccc(F)cc3)cc2)n1
0
